target: NEK2 (human) (UniProt P51955); experiment: radiometric filter-binding kinase assay; details: compound 1.0 µM
Sequence (P51955 whole entry, looked up): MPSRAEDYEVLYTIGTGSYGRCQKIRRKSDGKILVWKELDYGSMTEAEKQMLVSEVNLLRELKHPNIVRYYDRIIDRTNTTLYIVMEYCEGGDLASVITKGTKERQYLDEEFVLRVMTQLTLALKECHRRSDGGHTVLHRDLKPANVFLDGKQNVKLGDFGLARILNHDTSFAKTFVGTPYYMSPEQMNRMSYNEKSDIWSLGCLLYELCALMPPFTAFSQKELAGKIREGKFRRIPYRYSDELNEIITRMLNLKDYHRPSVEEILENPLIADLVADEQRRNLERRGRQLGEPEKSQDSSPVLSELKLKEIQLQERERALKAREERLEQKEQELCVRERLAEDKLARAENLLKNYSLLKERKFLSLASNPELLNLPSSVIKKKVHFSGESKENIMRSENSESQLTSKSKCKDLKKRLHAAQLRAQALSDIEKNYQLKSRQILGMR
# Lookup of reported residual activity keyed by entry
Number only, in %; omit the unit.

CCn1c(-c2nonc2N)nc2cncc(CNC3CCNCC3)c21 ... 93
Cc1ccc(=O)n(-c2ccccc2)c1 ... 107
Oc1ccc2ccccc2c1SSc1c(O)ccc2ccccc12 ... 10
FC(F)(F)c1ccc(-c2ccc(Oc3cncc4sc(-c5nn[nH]n5)cc34)cc2)cc1 ... 108
Cc1ccc(Sc2cnc(Nc3cccc(Br)n3)s2)cc1C(=O)N1CCN(C(=O)CN)CC1 ... 87
Cc1cccc(-c2nn(C(=S)Nc3ccccc3)cc2-c2ccnc3ccccc23)n1 ... 92

### Prompt Need residual activity, item `O=C(O)c1ccc(-c2c[nH]c3ncc(-c4ccccc4)cc23)cc1C1CCCC1`
### Response 60

### Prompt Note, next up: `C[C@H]1CCCC(=O)CCC/C=C/c2cc(O)cc(O)c2C(=O)O1`
### Response 93
